assay: Cmax in Sprague-Dawley rat at 5 mg/kg, po; format: ADME, organism-based; set-up: dose 5 mg/kg, route oral; conditions: in vivo
quantity-name: Cmax (µg/mL)
One number for each entry, in µg/mL.

Req: Quick one: give measured Cmax for CC(=O)Nc1nc2c(Oc3cc(-c4ccc(C(F)(F)F)cc4)nc(NC(C)c4ccccn4)n3)cccc2s1 (stereo unspecified)
Resp: 0.28

====

Give solubility for every item shown.
assay: Aqueous solubility in fasted-state stimulated intestinal fluid at pH 6.8; assay type: physicochemical; conditions: fasted-state simulated intestinal fluid
Give bare numbers, in µg/mL.

Some entries whose results are on file:
CC(=O)Nc1nc2c(Oc3cc(-c4ccc(C(F)(F)F)cc4)nc(NC(C)c4ccccn4)n3)cccc2s1 (centres undefined) :: 150
CC(=O)Nc1nc2c(Oc3cc(-c4ccc(C(F)(F)F)cc4)nc(N4CCCCC4)n3)cccc2s1 :: 2.8

Then there is this compound:
Req: Quick one: give measured solubility for CC(=O)Nc1nc2c(Oc3cc(-c4ccc(C(F)(F)F)cc4)nc(N4CCOCC4)n3)cccc2s1
Resp: 1.4

====

Give AUC(0-inf) for every item shown.
test: AUC (0 to infinity) in Sprague-Dawley rat at 1 mg/kg, iv; type: ADME, organism-based; parameters: time infinity, dose 1 mg/kg, route intravenous; settings: plasma
Numbers only, in ng·h/mL.

CC(=O)Nc1nc2c(Oc3cc(-c4ccc(C(F)(F)F)cc4)nc(C4=CCN(CC(C)C)CC4)n3)cccc2s1 :: 258
CC(=O)Nc1nc2c(Oc3cc(-c4ccc(C(F)(F)F)cc4)nc(NCC4CCCCN4CC(C)C)n3)cccc2s1 (stereo not drawn) :: 351

Req: Quick one: give measured AUC(0-inf) for CC(=O)Nc1nc2c(Oc3cc(-c4ccc(C(F)(F)F)cc4)nc(NC(C)c4ccccn4)n3)cccc2s1 (stereo not drawn)
Resp: 743

====

test: Aqueous solubility in 0.01N HCl; assay type: physicochemical
quantity-name: solubility

CC(=O)Nc1nc2c(Oc3cc(-c4ccc(C(F)(F)F)cc4)nc(N4CCCCC4)n3)cccc2s1 :: ≤ 1 µg/mL
CC(=O)Nc1nc2c(Oc3cc(-c4ccc(C(F)(F)F)cc4)nc(NCC4CCCCN4CC(C)C)n3)cccc2s1 (stereo not given) :: ≥ 200 µg/mL
CC(=O)Nc1nc2c(Oc3cc(-c4ccc(C(F)(F)F)cc4)nc(N4CCOCC4)n3)cccc2s1 :: ≤ 1 µg/mL
CC(=O)Nc1nc2c(Oc3cc(-c4ccc(C(F)(F)F)cc4)nc(N4CCC(O)CC4)n3)cccc2s1 :: 21 µg/mL

Then there is this compound:
Req: Quick one: give measured solubility for CC(=O)Nc1nc2c(Oc3cc(-c4ccc(C(F)(F)F)cc4)nc(NCC4CCN(CC(C)C)CC4)n3)cccc2s1
Resp: ≥ 200 µg/mL

====

Give log10 of IC50 for every item shown.
molecular target: Transient receptor potential cation channel subfamily V member 1 (Rattus norvegicus, UniProt O35433); test: Antagonist activity at rat TRPV1 expressed in CHO cells assessed inhibition of capsaicin induced calcium influx; format: functional, cell-based
Sequence (O35433 whole entry): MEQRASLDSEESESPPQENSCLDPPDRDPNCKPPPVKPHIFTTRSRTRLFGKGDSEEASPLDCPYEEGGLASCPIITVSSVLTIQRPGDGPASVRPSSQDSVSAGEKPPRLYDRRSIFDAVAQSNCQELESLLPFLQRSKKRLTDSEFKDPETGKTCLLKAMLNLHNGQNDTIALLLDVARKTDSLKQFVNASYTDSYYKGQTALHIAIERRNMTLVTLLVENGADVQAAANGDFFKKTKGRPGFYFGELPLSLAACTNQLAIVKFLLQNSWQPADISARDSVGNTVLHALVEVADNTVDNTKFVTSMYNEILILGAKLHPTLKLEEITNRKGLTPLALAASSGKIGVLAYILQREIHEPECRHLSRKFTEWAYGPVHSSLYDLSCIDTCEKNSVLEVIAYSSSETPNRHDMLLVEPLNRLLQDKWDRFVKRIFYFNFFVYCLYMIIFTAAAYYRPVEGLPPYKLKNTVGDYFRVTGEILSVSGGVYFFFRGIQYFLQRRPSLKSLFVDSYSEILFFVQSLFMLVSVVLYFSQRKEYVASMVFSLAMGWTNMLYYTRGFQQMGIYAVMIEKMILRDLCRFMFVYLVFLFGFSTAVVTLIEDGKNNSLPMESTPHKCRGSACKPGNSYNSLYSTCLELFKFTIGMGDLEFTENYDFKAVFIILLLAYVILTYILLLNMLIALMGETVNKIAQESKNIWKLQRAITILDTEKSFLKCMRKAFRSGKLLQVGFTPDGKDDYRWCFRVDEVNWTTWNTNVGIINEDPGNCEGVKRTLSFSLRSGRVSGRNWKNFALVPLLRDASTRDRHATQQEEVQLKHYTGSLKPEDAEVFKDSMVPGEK
Reminder: these figures are log10 of reported IC50, in µM before transformation.

For the 6 molecules below, give their log10 of IC50 values.
1. CC(=O)Nc1nc2c(Oc3cc(-c4ccc(C(F)(F)F)cc4)nc(N4CCCCC4)n3)cccc2s1
2. CC(=O)Nc1nc2c(Oc3cc(-c4ccc(C(F)(F)F)cc4)nc(N4CCOCC4)n3)cccc2s1
3. CC(=O)Nc1nc2c(Oc3cc(-c4ccc(C(F)(F)F)cc4)nc(NCC4CCN(CC(C)C)CC4)n3)cccc2s1
4. CC(=O)Nc1nc2c(Oc3cc(-c4ccc(C(F)(F)F)cc4)nc(N)n3)cccc2s1
5. CC(=O)Nc1nc2c(Oc3cc(-c4ccc(C(F)(F)F)cc4)nc(NC(C)c4ccccn4)n3)cccc2s1 (stereo not drawn)
6. CC(=O)Nc1nc2c(Oc3cc(-c4ccc(C(F)(F)F)cc4)nc(N4CCC(C(=O)O)CC4)n3)cccc2s1

Resp:
1. -2.29
2. -1.55
3. -1.29
4. -1.92
5. -2.82
6. -0.39

For the 2 molecules below, give their log10 of IC50 values.
1. CC(=O)Nc1nc2c(Oc3cc(-c4ccc(C(F)(F)F)cc4)nc(N4CCC(O)CC4)n3)cccc2s1
2. CC(=O)Nc1nc2c(Oc3cc(-c4ccc(C(F)(F)F)cc4)nc(NCC4CCCCN4CC(C)C)n3)cccc2s1 (stereo not drawn)

Resp:
1. -1.46
2. -2.21
